Tested on: MV4:11 human cancer cell lines
Procedure Text: Cellular viability / anti-proliferative assay, CellTiter-Glo, 5 day protocol
Format: cell-based
Conditions: Homo sapiens, MV4-11, 120 h, MV4:11 cells; 5 day incubation; CellTiter-Glo; mean of at least two replicates; read-out: GI50 on cellular proliferation of MV4:11 human cancer cell lines
Method: Cellular Viability of Human Tumor Cell Lines Anti-proliferative activity using MLL-harboring cell lines. […] After a set incubation period, 5 day protocol, the viability of cells in each well is assessed using the CellTiter-Glo assay (Promega), read on a 96 Microplane Luminometer (Cytation 3, BioTek). Serial dilutions of each cell type are performed in all assays to generate standard curves and the final densities of cells are determined within the dynamic range of the instrument. […]
Metric Name: GI50 (µM)

Here is how some molecules turned out for GI50.
Molecule	Result Number
Cc1nccn1Cc1cc2c(c(-c3cn(C)nc3C(F)(F)F)c1)CCN(C1CCOc3ccc(Br)cc31)C2=O (centres unmarked)	0.031
Cc1cnc2cccc(N3CCc4c(cc(Cn5ccnc5)cc4-c4cn(C)nc4C(F)(F)F)C3=O)c2c1	0.024

P = CCc1cc(C(=O)NCC2CCCC2)c2nccc(N3CCc4c(cc(Cn5ccnc5)cc4-c4cn(C)nc4C(F)(F)F)C3=O)c2c1
Q = Cc1ccc2c(N3CCc4c(cc(Cn5ccnc5)cc4-c4cn(C)nc4C(F)(F)F)C3=O)cccc2n1
Quick one: lower GI50, P or Q ? Field: selected label. Fill in the label of the entry you choose. P

A = COc1cc(-c2cn[nH]c2)c2nc(C)cc(N3CCc4c(cc(Cn5ccnc5)cc4-c4cn(C)nc4C(F)(F)F)C3=O)c2c1
B = CCc1cc(C(=O)O)c2nccc(N3CCc4c(cc(Cn5ccnc5)cc4-c4cn(C)nc4C(F)(F)F)C3=O)c2c1
C = Cc1ccc2cncc(N3CCc4c(cc(C(O)c5cn(C)cn5)cc4-c4cn(C)nc4C(F)(F)F)C3=O)c2c1 (centres unmarked)
Ordering: ascending GI50. Please write the labels in the order that was asked for. A, B, C

a = CCc1cc(N2CCOCC2)c2nccc(N3CCc4c(cc(Cn5ccnc5)cc4-c4cn(C)nc4C(F)(F)F)C3=O)c2c1
b = COc1cnc2c(C)ccc(N3CCc4c(cc(Cn5ccnc5)cc4-c4cn(C)nc4C(F)(F)F)C3=O)c2c1
c = COc1ccc2ccnc(N3CCc4c(cc(Cn5ccnc5C)cc4-c4cn(C)nc4C(F)(F)F)C3=O)c2c1
d = COc1cc(C(=O)O)c2nccc(N3CCc4c(cc(Cn5ccnc5)cc4-c4cn(C)nc4C(F)(F)F)C3=O)c2c1
Please give the order of these molecules when sorted by GI50, largest value leading. Use the labels to give the requested order. d, c, b, a
(d: 0.291 µM, c: 0.083 µM, b: 0.043 µM, a: 0.023 µM)

###

System: MV4:11 human cancer cell lines
Procedure Text: Cellular viability / anti-proliferative assay, CellTiter-Glo, 5 day protocol
Type: cell-based
Conditions: Homo sapiens, MV4-11, 120 h, MV4:11 cells; 5 day incubation; CellTiter-Glo; mean of at least two replicates; read-out: GI50 on cellular proliferation of MV4:11 human cancer cell lines
Metric Name: GI50 (nM)

Compound	Assay Target	Value Unit	GI50
COc1cc(C)c2nccc(N3CCc4c(cc(Cn5ccnc5C)cc4-c4cn(C)nc4C(F)(F)F)C3=O)c2c1 [Example 7]	MV4:11 human cancer cell lines	nM	29
CCc1cc(C2=CCN(C)CC2)c2nc(C)cc(N3CCc4c(cc(Cn5ccnc5)cc4-c4cn(C)nc4C(F)(F)F)C3=O)c2c1 [Example 147]	MV4:11 human cancer cell lines	nM	43

P = Cc1ccc2cncc(N3CCc4c(cc(Cc5ncc[nH]5)cc4-c4cn(C)nc4C(F)(F)F)C3=O)c2c1 [Example 56]
Q = COc1ccc2c(c1)c(N1CCc3c(cc(Cn4ccnc4C)cc3-c3cn(C)nc3C(F)(F)F)C1=O)nn2C [Example 81]
Lab log: flag the item ( P or Q ) with the smaller GI50 figure. To answer, give the label that identifies your chosen option. Q

###

System: MV4:11 human cancer cell lines
Procedure Text: Cellular viability / anti-proliferative assay, CellTiter-Glo, 5 day protocol
Format: cell-based
Conditions: Homo sapiens, MV4-11, 120 h, MV4:11 cells; 5 day incubation; CellTiter-Glo; mean of at least two replicates; read-out: GI50 on cellular proliferation of MV4:11 human cancer cell lines
Metric Name: GI50 (nM)

Examples with answers:
Molecule	Metric Name	Result Number
COc1cc(C2=CCOCC2)c2nc(C)cc(N3CCc4c(cc(Cn5ccnc5)cc4-c4cn(C)nc4C(F)(F)F)C3=O)c2c1	GI50	55
COc1ccc2c(OC)ncc(N3CCc4c(cc(Cn5ccnc5)cc4-c4cn(C)nc4C(F)(F)F)C3=O)c2c1	GI50	111

A = Cc1nccn1Cc1cc2c(c(-c3cn(C)nc3C(F)(F)F)c1)CCN(C1CCOc3ccc(C4CC4)cc31)C2=O (centres unmarked)
B = CCc1cc(C(=O)NCc2ccncc2)c2nccc(N3CCc4c(cc(Cn5ccnc5)cc4-c4cn(C)nc4C(F)(F)F)C3=O)c2c1
C = CCc1cc(C(=O)NCC2CN(C(C)=O)C2)c2nccc(N3CCc4c(cc(Cn5ccnc5)cc4-c4cn(C)nc4C(F)(F)F)C3=O)c2c1
D = Cc1nccn1Cc1cc2c(c(-c3cn(C)nc3C(F)(F)F)c1)CCN(c1ccnc3cc(Cl)ccc13)C2=O
E = COc1ccc(N2CCc3c(cc(Cn4ccnc4C)cc3-c3cn(C)nc3C(F)(F)F)C2=O)c2cc(C)cnc12
Order the entries by their reported GI50, beginning at the minimum. Record the ranking as a list of labels in the requested order. C, B, A, D, E

###

Tested on: MV4:11 human cancer cell lines
Procedure Text: Cellular viability / anti-proliferative assay, CellTiter-Glo, 5 day protocol
Format: cell-based
Conditions: Homo sapiens, MV4-11, 120 h, MV4:11 cells; 5 day incubation; CellTiter-Glo; mean of at least two replicates; read-out: GI50 on cellular proliferation of MV4:11 human cancer cell lines
Metric Name: GI50 (nM)

Molecule	Value Unit	GI50
COc1cc(C(=O)NS(C)(=O)=O)c2nc(C)cc(N3CCc4c(cc(Cn5ccnc5)cc4-c4cn(C)nc4C(F)(F)F)C3=O)c2c1 [Example 181]	nM	856
Cc1cc2c(N3CCc4c(cc(Cn5ccnc5)cc4-c4cn(C)nc4C(F)(F)F)C3=O)cccc2nc1C [Example 108]	nM	40
CCc1cnc2cncc(N3CCc4c(cc(Cn5ccnc5)cc4-c4cn(C)nc4C(F)(F)F)C3=O)c2c1 [Example 211]	nM	20

I = COc1cc(C(=O)NC(C)C)c2nccc(N3CCc4c(cc(Cn5ccnc5)cc4-c4cn(C)nc4C(F)(F)F)C3=O)c2c1 [Example 47]
II = Cc1nccn1Cc1cc2c(c(-c3cn(C)nc3C(F)(F)F)c1)CCN(C1COc3ccccc31)C2=O (stereo not drawn) [Example 77]
III = CNC(=O)c1cc(OC)cc2c(N3CCc4c(cc(Cn5ccnc5)cc4-c4cn(C)nc4C(F)(F)F)C3=O)ccnc12 [Example 42]
IV = Cc1cc(Cl)c2cncc(N3CCc4c(cc(Cn5ccnc5)cc4-c4cn(C)nc4C(F)(F)F)C3=O)c2c1 [Example 24]
V = COc1ccc2c(c1)C(N1CCc3c(cc(Cn4ccnc4)cc3-c3cn(C)nc3C(F)(F)F)C1=O)CCO2 (stereo not drawn) [Example 67]
# rank_down: sort by GI50, max first Write the labels in rank order as requested. II, IV, I, V, III
(II: 583 nM, IV: 92 nM, I: 54 nM, V: 35 nM, III: 20 nM)

###

Here's a batch of compounds along with measured Ki for WDR5 (Homo sapiens, UniProt P61964).
Metric Name: Ki (nM)

Compound	Ki / nM
CCn1cc(-c2cc(Cn3ccnc3)cc3c2CCN(c2cncc4ccc(C)cc24)C3=O)c(C(F)(F)F)n1	0.028
COCCN1CCN(Cc2cc(OC)cc3c(N4CCc5c(cc(Cn6ccnc6)cc5-c5cn(C)nc5C(F)(F)F)C4=O)ccnc23)CC1	0.047
Cc1cc(Cl)c2cncc(N3CCc4c(cc(Cn5ccnc5)cc4-c4cn(C)nc4C(F)(F)F)C3=O)c2c1	0.026
CCc1cc2c(N3CCc4c(cc(Cn5ccnc5)cc4-c4cn(C)nc4C(F)(F)F)C3=O)cccc2nc1C	0.036
Cc1nccn1Cc1cc2c(c(-c3cn(C)nc3C(F)(F)F)c1)CCN(C1CCCc3ncccc31)C2=O (centres unmarked)	0.042

1 = Cc1nccn1Cc1cc2c(c(-c3cn(C)nc3C(F)(F)F)c1)CCN(C1CCCc3ccc(Br)cc31)C2=O (centres unmarked)
2 = Cc1nccn1Cc1cc2c(c(-c3cn(C)nc3C(F)(F)F)c1)CCN(C1CCOc3ccc(Br)cc31)C2=O (centres unmarked)
Endpoint returns the identifier whose Ki is numerically larger, either 1 or 2 . In your reply, give the label of the chosen option. 2

All figures here come from patent US12692249B2.
